assay: Cytotoxicity against VSMC (unknown origin) cells assessed as cell survival at 1 uM measured after 12 hrs by MTT assay; assay type: toxicity, cell-based; details: read-out: Activity
Each entry below carries its recorded viability at 12 h, 1 µM.
Report as a plain number; the unit % is understood.

# annotated cases, reported viability at 12 h, 1 µM shown
COc1cc2ccc(=O)oc2c2c1OC(C)(C)C=C2 | 101
COc1cc2ccc(=O)oc2cc1O | 91.2
CCCOc1cc2ccc(=O)oc2c2c1OC(C)(C)C=C2 | 107

We now examine a further compound.
Ask: I am curious: what viability at 12 h, 1 µM value has been reported for `CCOc1cc2ccc(=O)oc2c2c1OC(C)(C)C=C2` ?
Result: 114

----------
organism: Rattus norvegicus; assay: Vasorelaxant activity in U46619-induced preconstricted rat endothelium-intact main mesenteric artery assessed as relaxation response; type: functional; conditions: read-out: EC50
REPORTED METRIC: EC50 (nM)
Note: unit nM is implicit; provide only the numeric part.

Examples with answers:
CC1(C)C=Cc2c(ccc3ccc(=O)oc23)O1 | 2120
COc1cc2ccc(=O)oc2c2c1OC(C)(C)C=C2 | 1580

The record that follows has no EC50 shown yet.
Ask: Suppose we examine the compound `CCCOc1cc2ccc(=O)oc2c2c1OC(C)(C)C=C2` ; what EC50 value has been reported?
Result: 1900

Taken from ChEMBL document CHEMBL5257123.
